# System: CP329
# ASSAY_NAME: qHTS profiling for inhibitors of Plasmodium falciparum proliferation (AID 504749); further: nearly all actives have a fitted effect of over 60% in size
# CONDITION_INFO: P. falciparum in erythrocytes, SYBR Green DNA, 72 h; series mostly up to 28.7 µM
Results filed as inconclusive are left out. Calls of active or inactive are those of the source. The call rests on the fitted dose curve; in most records, active means well fitted inhibition curve with a large enough effect; inconclusive means small, poorly fitted or top-dose-only effect; inactive means flat fitted curve, though single readings scatter.
Outcome codes: active, inactive

{"columns": ["MOLECULE", "CLASS_NAME"],
 "data": [
  ["COC(=O)C1=C(C#N)NC(C)=C(C(=O)OC(C)C)C1c1cccc([N+](=O)[O-])c1 (stereo unspecified)", "active"],
  ["O=C(O)c1cc(O)c2c(c1)[O][Bi][O]2", "inactive"],
  ["CCOc1ccc2c(c1)C(C)=CC(C)(C)N2", "inactive"],
  ["CCCCC/C=C\\C/C=C\\CCCCCCCC(=O)O", "inactive"],
  ["Oc1cc(O)c2c(c1)OC(c1ccc(O)c(O)c1)C(O)C2 (stereo unspecified)", "inactive"],
  ["CCCCCCCC(=O)O", "inactive"],
  ["C[C@H]1C[C@H]2[C@@H]3CCC4=CC(=O)C=C[C@]4(C)[C@@]3(F)[C@@H](O)C[C@]2(C)[C@@]1(O)C(=O)CO", "inactive"],
  ["CCCCCCCCCCCC[n+]1ccc2ccccc2c1", "active"],
  ["C[C@]12CCC(=O)C=C1CC[C@@H]1[C@@H]2[C@@H](O)C[C@@]2(C)[C@H]1CC[C@]2(O)C(=O)COP(=O)(O)O", "inactive"],
  ["CCOc1ccc(N=Nc2ccc(N)cc2N)cc1", "inactive"],
  ["CCC(=O)NCCC1CCc2ccc3c(c21)CCO3 (stereo unspecified)", "inactive"]
]}

* * *

# Test system: Dd2
# ASSAY_NAME: qHTS profiling for inhibitors of Plasmodium falciparum proliferation (AID 504749); further: nearly all actives have a fitted effect of over 60% in size
# CONDITION_INFO: P. falciparum in erythrocytes, SYBR Green DNA, 72 h; series mostly up to 28.7 µM
Records with an inconclusive call do not appear. Calls of active or inactive are those of the source. Calls come from the whole dose curve; as a rule, active = well fitted inhibition curve with a large enough effect; inconclusive = small, poorly fitted or top-dose-only effect; inactive = flat fitted curve, though single readings scatter.
Outcome codes: 1 (active), -1 (inactive)

{"columns": ["COMPOUND", "CLASS_NAME"],
 "data": [
  ["COC(C(=O)C(O)C(C)O)C1Cc2cc3cc(OC4CC(OC5CC(O)C(O)C(C)O5)C(O)C(C)O4)c(C)c(O)c3c(O)c2C(=O)C1OC1CC(OC2CC(OC3CC(C)(O)C(O)C(C)O3)C(O)C(C)O2)C(O)C(C)O1 (stereo not given)", 1],
  ["Cc1cc(C(=O)NNCc2ccccc2)no1", -1],
  ["COC(=O)[C@H]1[C@H]2C[C@@H]3c4[nH]c5ccccc5c4CCN3C[C@H]2C[C@@H](OC(=O)c2cc(OC)c(OC)c(OC)c2)[C@@H]1OC", 1],
  ["COCC(=O)Nc1cc(Sc2ccccc2)ccc1N=C(NC(=O)OC)NC(=O)OC", -1],
  ["Nc1ncnc2c1ncn2[C@@H]1O[C@H](COP(=O)(O)OP(=O)(O)OP(=O)(O)O)[C@@H](O)[C@H]1O", -1],
  ["CCOc1ccc2c(c1)C(C)=CC(C)(C)N2", -1],
  ["CC(=O)Oc1c(C)cc(OCC(O)CNC(C)C)c(C)c1C (stereo not given)", -1],
  ["CCCC(=O)Nc1ncnc2c1ncn2C1OC2COP(=O)(O)OC2C1OC(=O)CCC (stereo not given)", -1],
  ["O=C(O)c1cc(=O)c2c3nc4ccccc4oc-3cc(=O)c2[nH]1", 1],
  ["C=CCSSSCC=C", -1]
]}
